# key: entry, value: GI50
tested on: NCI-H23; experiment: NCI tumour cell line growth inhibition, 48 h
Active and inactive are the calls of the source. Rule as the data show it: active = GI50 up to about 1.1 µM and inactive = higher.

C=CCN1C(=O)CC(=O)N(NC2=NNC3(C(=O)N2)c2ccccc2-c2ccccc23)C1=S : 29.2 µM (inactive)

Which GI50 is reported for this molecule? NC(=O)N/N=C1/CCC(O)CC1CC(=O)O (stereo not drawn)
> 100 µM (inactive)

What do you have for COC(=O)[C@]1(C)CCC[C@]2(C)[C@@H](CCC(=O)C(C)C)[C@]3(C=O)O[C@@H]3C[C@H]21 ?
28.1 µM (inactive)

---

tested on: SK-OV-3; test: NCI tumour cell line growth inhibition, 48 h
Activity calls are given as the source filed them. Rule as the data show it: active = GI50 up to about 1.1 µM and inactive = higher. Peptide text beside a SMILES is read from it. * marks the point of attachment. Trt = c1ccc(C(c2ccccc2)(c2ccccc2)*)cc1; Cbz = O=C(OCc1ccccc1)*
A correct response names exactly one class from y = active, n = inactive

Take a look at these entries with their results.
C/C(=C/CO[Si](C)(C)C(C)(C)C)C(=O)N(C)c1ccccc1I : n
COc1cc([N+](=O)[O-])c(S(=O)(=O)O)cc1-n1nc(-c2ccccc2)n[n+]1-c1cc(S(=O)(=O)[O-])c([N+](=O)[O-])cc1OC : n
CCCCCCCCC/C=C1/CC(CO)(COC(=O)CC(C(C)C)C(C)C)OC1=O (configuration not stated) : n
COC(=O)C(CO)NC(=O)C(CSC(c1ccccc1)(c1ccccc1)c1ccccc1)NC(=O)OCc1ccccc1 (configuration not stated) (Cbz-Cys(Trt)-Ser-OMe; configuration not given here) : n
Cc1ccc(S(=O)(=O)N2CCSCCN(S(=O)(=O)c3ccc(C)cc3)CCN(S(=O)(=O)c3ccc(C)cc3)CC2)cc1 : n
O=[N+]([O-])c1cccc2nc3ccccc3c(NCCCNc3c4ccccc4nc4cccc([N+](=O)[O-])c34)c12 : y

Per the records of this test, what outcome belongs to N#C/C(C(=O)Nc1ccc(Cl)cc1)=C(/N)N1CCCC1 ?
n

---

tested on: SF-268; assay: NCI tumour cell line growth inhibition, 48 h
The source made the active and inactive calls. Cut-off read from the data, not from the text of the source: active = GI50 up to about 1.1 µM and inactive = higher.
A correct response names exactly one class from active, inactive

CN(C)CCNC(=O)c1cccc2c(NCC(=O)O)c3ccccc3nc12 : inactive

Per the records of this test, what outcome belongs to CCc1c(Cl)c(C)cc(O)c1Cl ?
inactive

---

tested on: A549; assay: NCI tumour cell line growth inhibition, 48 h
Activity calls are given as the source filed them. Rule as the data show it: active = GI50 up to about 1.1 µM and inactive = higher.
ASSAY METRIC: GI50

Worked cases, answers included:
CC(=O)/C=C1/C(=O)C(CC(C)C)=C1CC(C)C : > 100 µM (inactive)
CC1(C)CC2=C(Sc3ccccc3N2)C(=O)C1C(=O)C(=O)Nc1cccc([N+](=O)[O-])c1 (stereo unspecified) : > 100 µM (inactive)
O=C1OC(=O)C2CCCC3CCCC1C32 (stereo unspecified) : > 100 µM (inactive)
O=C(O)c1ccccc1-c1ccccc1C(=O)Nc1ccc2c(c1)Cc1ccccc1-2 : 29.2 µM (inactive)
CC1=CC(C)(C)N=C2SC(c3ccc(N)cc3)=NN12 : 51.9 µM (inactive)

Which GI50 is reported for this molecule? CN(C)c1cccc2c1C(=O)C=CC21c2ccc(N(C)C)c3c(N(C)C)ccc(c23)C(c2ccccc2)C1c1ccccc1 (stereo unspecified)
27.5 µM (inactive)

What do you have for COc1ncnc2c(NC3OC(CO)C(O)C3O)ncnc12 (stereo unspecified) ?
0.131 µM (active)

What do you have for CC1=C(C)CC2(CCCCC2=O)[S+]([O-])C1 (stereo unspecified) ?
> 100 µM (inactive)

What do you have for CCCCCCCCC/C=C1/CC(CO)(COC(=O)CC(C(C)C)C(C)C)OC1=O (stereo unspecified) ?
1.58 µM (inactive)

What do you have for CC(C)(C)C1=CC(=N/N=c2\scc(-c3ccccc3)n2Cc2ccccc2)C=C(C(C)(C)C)C1=O ?
> 100 µM (inactive)

What do you have for Cc1cc(C)nc(NC(=S)Nc2ccc(Cl)cc2)c1 ?
> 100 µM (inactive)

What do you have for CC(=O)Oc1ccc(N2C(=O)C3c4[nH]c5ccccc5c4C4CCC(C(C)(C)C)CC4C3C2=O)cc1 (stereo unspecified) ?
3.13 µM (inactive)

---

test system: SW-620; assay: NCI tumour cell line growth inhibition, 48 h
Activity calls are given as the source filed them. Rule as the data show it: active = GI50 up to about 1.1 µM and inactive = higher.
A correct response names exactly one class from T for active, F for inactive

Take a look at these entries with their results.
COc1ccc(N(C)S(=O)(=O)c2ccccc2)cc1 : F
CC1C(=O)O[B-]2(c3ccccc3)Oc3ccccc3C=[N+]12 (stereo not given) : F
CC(=O)OCC1OC(n2c(=O)n(-c3ccccc3)c(=O)c3cc(Br)cc(Br)c32)C(OC(C)=O)C(OC(C)=O)C1OC(C)=O (stereo not given) : F
CCOc1ccc(NC(=O)CC2SC(N)=NC2=O)cc1 (stereo not given) : F
CCCNC(=O)c1cc(OC)c(OC)cc1NC(=O)C12CC3CC(CC(C3)C1)C2 : F

Then this compound:
Per the records of this test, what outcome belongs to C[N+](C)(C)C.FC(F)(F)C1(C(F)(F)F)O[SiH-]2(OC(C(F)(F)F)(C(F)(F)F)c3ccccc32)c2ccccc21 ?
F

---

system: EKVX; assay: NCI tumour cell line growth inhibition, 48 h
Calls of active or inactive are those of the source. Rule as the data show it: active = GI50 up to about 1.1 µM and inactive = higher.
ASSAY METRIC: GI50

Worked cases, answers included:
OC1(c2ccccc2)CSC2=Nc3ccccc3C3CCN1N23 (stereo unspecified) : 3.89 µM (inactive)
O=C1C(c2ccc([N+](=O)[O-])cc2)=C(Cl)C(=O)c2c(O)cccc21 : 20.5 µM (inactive)
COC(=O)/C(=N\NC(N)=O)C(C#N)c1ccccc1 (stereo unspecified) : > 100 µM (inactive)
CC(C)(C)C1=CC(=N/N=c2\scc(-c3ccccc3)n2Cc2ccccc2)C=C(C(C)(C)C)C1=O : > 100 µM (inactive)
Clc1ccc(-c2nnc3c4nnc(-c5ccc(Cl)cc5Cl)n4c4ccccc4n23)c(Cl)c1 : > 100 µM (inactive)

Which GI50 is reported for this compound? CCN(CC)CCC(=O)c1ccc(Oc2ccc(Cl)cc2)cc1
19.5 µM (inactive)

---

tested on: SN12C; test: NCI tumour cell line growth inhibition, 48 h
Activity calls are given as the source filed them. Rule as the data show it: active = GI50 up to about 1.1 µM and inactive = higher.
A correct response names exactly one class from 1 = active, -1 = inactive

Take a look at these entries with their results.
Cc1nc(=O)c2cc(CN(C)c3ccc(C(=O)N[C@@H](CCC(=O)O)C(=O)O)s3)ccc2[nH]1 : 1
N[C@@H]1c2c(Br)sc(Br)c2[C@H](O)[C@@H]1O : -1
CCOC(=O)/C=C(\C(=O)OCC)n1ccc(=O)n(CC(=O)OCC)c1=O : -1
Cc1ccc2c(c1)C(=O)C1(C2)Cc2cccc(C)c2C1=O (centres undefined) : -1
COC(=O)C1=C(C)NC(C)=C(C(=O)OC)C1c1cccc(/[N+]([O-])=C/c2ccccc2)c1 : -1

Per the records of this test, what outcome belongs to C[Si](C)(C)/C(Br)=C\CCN1C(=O)CCC1O (centres undefined) ?
-1

What do you have for COc1cc2c(c(OC)c1OC)-c1ccc(SC)cc1C(=O)CC2 ?
1

What do you have for CCOC(=O)Cc1csc2[n+]1C(=O)/C(=C/c1cccc(OC)c1O)S2 ?
-1

What do you have for CC(=O)C1(C)CC(C#N)(C#N)C(C#N)=C1N (centres undefined) ?
-1

---

test system: LXFL 529; assay: NCI tumour cell line growth inhibition, 48 h
The source made the active and inactive calls. Rule as the data show it: active = GI50 up to about 1.1 µM and inactive = higher.
A correct response names exactly one class from true (1) = active, false (0) = inactive

Take a look at these entries with their results.
CC1=C(C(=O)Nc2cc(F)c(F)cc2F)C(c2ccc([N+](=O)[O-])cc2)C(C(=O)Nc2cc(F)c(F)cc2F)=C(C)N1 : false (0)
Brc1cc2c(cc1Br)CN(c1ccccc1)C2 : false (0)
CCOc1ccc(NC(=O)CC2SC(N)=NC2=O)cc1 (stereo not given) : false (0)

Per the records of this test, what outcome belongs to C/C(CC(=O)Nc1ccc(NC(=O)/C(C)=N/NS(=O)(=O)c2ccc(C)cc2)cc1)=N\NS(=O)(=O)c1ccc(C)cc1 ?
false (0)

What do you have for COc1ccc(OC(C(=O)O)C(C)C)c2c1CCCC2=O (stereo not given) ?
false (0)

What do you have for Clc1cc(Cl)c2c(Cl)cc(Cl)c3c2c1N=S=N3 ?
false (0)

What do you have for COc1ncnc2c(NC3OC(CO)C(O)C3O)ncnc12 (stereo not given) ?
true (1)

What do you have for CN/N=C(/Cc1occc(=O)c1O)C(=O)Nc1ccc(C)c(C)c1 ?
false (0)

What do you have for NC(CNc1ccc(O)cc1)C(=O)O (stereo not given) ?
false (0)

What do you have for CC(=O)N/C=C/c1cc(O)ccc1O ?
false (0)

What do you have for Brc1ccc2c(C3CN[C@@H](c4c[nH]c5cc(Br)ccc45)CN3)c[nH]c2c1 (stereo not given in full) ?
false (0)

What do you have for CCCCCCCC(=O)OCC(C[As](=O)(O)O)OC(=O)CCCCCCC (stereo not given) ?
false (0)

What do you have for COc1ccc(/C=N/n2cnc3c(c2=O)S/C(=C2/SC(=S)N(c4ccc(C)cc4)C2=O)N3c2ccccc2)cc1 ?
false (0)

What do you have for CC(C)=CCC/C(C)=C/Cc1c(O)c(C)cc2c1[nH]c1cc(O)ccc12 ?
false (0)

What do you have for CCOC(=O)C(c1ccsc1)P(=O)(OCC)OCC (stereo not given) ?
false (0)

What do you have for COC(=O)/C(=N\NC(N)=O)C(C#N)c1ccccc1 (stereo not given) ?
false (0)

What do you have for O=C(Nc1c(Cl)cc([N+](=O)[O-])cc1Cl)C(=O)C(C1OC(=O)c2ccccc21)[N+](=O)[O-] (stereo not given) ?
false (0)

What do you have for CC1(C)CC(=O)C(/C(=N/NC(=S)NN)C(=O)Nc2nc3ccc([N+](=O)[O-])cc3s2)C(=O)C1 ?
false (0)

What do you have for O=C(CCC(=O)C1CCC/C1=N/O)Nc1ccc(Cl)cc1 (stereo not given) ?
false (0)

What do you have for N=C(N)NS(=O)(=O)c1ccc(NC(=O)c2cccc3c(Nc4ccc(S(N)(=O)=O)cc4)c4ccccc4nc23)cc1 ?
false (0)
